System: HCC-2998 colon
method.summary: NCI-60 one-dose screen, 48 h (100 = growth as untreated, 0 = no growth, -100 = all killed)
condition.set: 10 µM unless noted
Experimental: Growth inhibition of the HCC-2998 human tumor cell line is measured as a screen for anti-cancer activity. Cells are grown in 96 well plates and exposed to the test compound for 48 hours. Compounds are tested at a single concentration, which is 10^-5 M for most compounds. The reported endpoint is percent growth (GI% or GIPRCNT), where numbers from 0 - 100% represent growth inhibition, and numbers from -100% - 0 represent cell death. For example, a value of 40 represents 60% growth inhibition. […]
This is part of a sample that, as a whole, favours compounds with a hit. Of some 83,000 tested, about 20% had one in any assay.
The following compounds are shown together with reported growth values.
Report only the number, with the unit % understood.

Determine from records and report growth for `COc1nc2ccc(C)cc2cc1-c1nc2c(cnn2-c2ccc(Br)cc2)c(=O)[nH]1`
88.4

---

Tested on: SK-MEL-28 melanoma
method.summary: NCI-60 one-dose screen, 48 h
condition.set: 10 µM unless noted
About 83,000 compounds went through this panel and 20% of them were active in at least one assay; those are over-represented in the sample as a whole. Active and inactive are the calls of the source. The calls were made as follows: active = growth percent below 10; inactive = the rest.
// one of T for active, F for inactive, no free text

Example cases with answers are listed next.
- O=C(Cc1ccc(F)c(Cl)c1)Nc1cc(C2(C(F)(F)F)CC2)nn1CC1CCCCC1: F
- CC(C)n1cnc2c(Nc3cccc(Cl)c3)nc(N[C@H]3CCCC[C@@H]3N)nc21: F
- O=C1CCC/C=C\C[C@H]2C=CC(=O)/C2=C/C[C@H](CCc2cccc(C(F)(F)F)c2)O1: T
- CCOC(=O)c1sc2ncc(-c3ccc(C)cc3)n2c1C: F
- C=C(C)[C@@H]1CC[C@]2(N=C=O)CC[C@]3(C)[C@H](CC[C@@H]4[C@@]5(C)Cc6c([nH]c7ccccc67)C(C)(C)[C@@H]5CC[C@]43C)[C@@H]12: F
- Cc1cc(O)c(C2=NN(c3ccc(S(N)(=O)=O)cc3)C(c3ccccc3O)C2)cc1Cl (stereo unspecified): F

Entry O=CN1N=C(c2ccc(Nc3ccnc4cc(Cl)ccc34)cc2)CC1c1ccccc1 (stereo unspecified) : call = ?
F

Entry `Cc1ccc2c(-c3cc(-c4ccccc4)nc(N)c3C#N)cc(=O)oc2c1` : call = ?
F

Entry `COc1ccc(-c2nnc(COc3ccc(Cl)cc3Cl)o2)cc1OC` : call = ?
F

Entry `CCCCC[C@H](O)C/C=C1/C(=O)C=C[C@@H]1C/C=C\CCCC(=O)O` : call = ?
F

Entry `O=c1c2cc(F)ccc2sc2c(NCCCNCCO)nc3ccc(F)cc3c12` : call = ?
F

Entry `Fc1cc2c(cc1Cl)N(c1ncnc3ccc(-c4cnc5cnccn45)cc13)CC2` : call = ?
F

Entry CC1CN(C2CCCCC2)C(=S)N(c2ccccc2)C1=O (stereo unspecified) : call = ?
F

Entry `c1ccc2c(-c3nc(-c4c[nH]c5ccncc45)cs3)c[nH]c2c1` : call = ?
T

Entry CNC(C)[C@H]1CCC2C3CCC4C[C@@H](N(C)C(=O)c5ccccc5)CC[C@]4(C)C3CC[C@@]21C (stereo partly specified) : call = ?
T

---

Test system: HS 578T breast
method.summary: NCI-60 one-dose screen, 48 h
condition.set: 10 µM unless noted
The panel holds about 83,000 compounds, 20% with a hit somewhere; the sample as a whole holds those more often. Active and inactive are the calls of the source. The calls were made as follows: active = growth percent below 10; inactive = the rest.
// one of class 1 for active, class 0 for inactive, no free text

• CN1C(=O)N(C)C2Nn3c(s/c(=C\c4ccccc4)c3=O)=NC21 (centres undefined) = class 0

Entry CCCC1CCC(O)(C(C)(O)C(=O)NC2C(=O)N3NCCCC3C(=O)N(O)C(C)C(=O)N3NCCCC3C(=O)N3NCC(O)CC3C(=O)NC(C)C(=O)OC2C(C)C)OC1CC (centres undefined) : call = ?
class 1

Entry `O=CN(SSN(C=O)C1CCCCC1)C1CCCCC1` : call = ?
class 0

Entry `CCOC(=O)Cn1c(C)c(/C=N/NC(=O)c2cc3c(ccc4ccccc43)o2)c2ccccc21` : call = ?
class 0

Entry COc1ccc(C2C(N)=NNC2c2cccc(O)c2)cc1 (centres undefined) : call = ?
class 0

Entry `COc1cc(/C=C/c2c(C(C)=O)c(C)nc3ccccc23)cc(OC)c1OC` : call = ?
class 1

Entry `COC(=O)c1ccc2[nH]c(O)c(C(=Nc3ccc(N(C)C(=O)CN4CCN(C)CC4)cc3)c3ccccc3)c2c1` : call = ?
class 1

Entry `Cc1cc(=O)[nH]c(=O)n1Cc1cn(-c2c3ccccc3nc3ccccc23)nn1` : call = ?
class 0

Entry `CCCCCCn1c(-c2ccc(C(=O)O/N=C(\N)c3ccc(OC)cc3)cc2)nc(-c2ccccc2)c1-c1ccccc1` : call = ?
class 1

---

Test system: SK-OV-3 ovarian
method.summary: NCI-60 one-dose screen, 48 h (100 = growth as untreated, 0 = no growth, -100 = all killed)
condition.set: 10 µM unless noted
The panel holds about 83,000 compounds, 20% with a hit somewhere; the sample as a whole holds those more often.
// assign yes if growth falls strictly below 60%, else no (ties count as no)

* CN1CCN(CC(=O)N2c3cccc4cccc(c34)N(C(=O)CN3CCN(C)CC3)C2c2cn(-c3ccccc3)nc2-c2cccc([N+](=O)[O-])c2)CC1 | yes
* Cc1ccc(-c2nc(N3CCN(C(=O)c4ccc(OC(F)(F)F)cc4)CC3)c3ccccc3n2)cc1 | no
* N#Cc1ccc(NC(=O)c2sc3nc4c(cc3c2N)C(=O)CCC4)cc1 | no
* S=c1nc(-c2ccccc2)oc(=NC2CCCCC2)n1C1CCCCC1 | no
* Cc1cc(O)c(C2=NN(c3ccc(S(N)(=O)=O)cc3)C(/C=C/c3ccccc3)C2)cc1Cl (stereo not drawn) | yes

A record lists `Cc1c(C(=O)N[C@@H](Cc2ccccc2)C(=O)C(=O)NCc2ccc(F)cc2)[nH]c2ccccc2c1=O` . Is its growth below 60%?
no

---

Tested on: HS 578T breast
method.summary: NCI-60 one-dose screen, 48 h (100 = growth as untreated, 0 = no growth, -100 = all killed)
condition.set: 10 µM unless noted
Compounds without any hit were thinned out: in the full panel of roughly 83,000, 20% have a hit.
Cut-off 80% on growth, inclusive. At or above means Condition met; below means Condition not met.

Example cases with answers are listed next.
* Cc1cc(C)c(-c2c(N)cc(Br)cc2Br)c(N)c1 | Condition not met
* CC(=O)CC(c1ccccc1)c1c(C)[nH]c2ccccc12 (stereo not given) | Condition met
* COc1cc(C(=O)/C=C/c2c(Cl)nc3sccn23)cc(OC)c1OC | Condition not met
* COc1ccc([C@H]2c3cc(OC)c(OC)cc3C=C(C=O)C2CO)cc1OC (stereo not given in full) | Condition not met
* O=C(Nc1c2ccccc2nc2ccccc12)c1ccccc1CN1C(=O)c2ccccc2C1=O | Condition not met
* O=C1NC(=O)C(c2ccccc2)(c2ccccc2)N1Cc1cn(-c2c3ccccc3nc3ccccc23)nn1 | Condition met
* c1ccc2c(-c3nc(-c4c[nH]c5ccncc45)cs3)c[nH]c2c1 | Condition not met
* CC(=O)OC[C@H]1OC(Sc2sc(C(=O)c3ccc(Br)cc3)c(N)c2-c2nc3ccccc3s2)[C@H](OC(C)=O)[C@@H](OC(C)=O)[C@H]1OC(C)=O (stereo not given in full) | Condition met
* Cc1nc2ccccc2n1-c1ncnc2c1CC(C)c1ccccc1N2C (stereo not given) | Condition met

Field: next compound
Does the reported growth for `Cc1nn(-c2ccccc2)c(-n2ccnc2)c1/C=N/Nc1nc(-c2ccc(F)cc2)cs1` fall at or above the 80% mark?
Condition met

---

Test system: SK-MEL-5 melanoma
method.summary: NCI-60 one-dose screen, 48 h (100 = growth as untreated, 0 = no growth, -100 = all killed)
condition.set: 10 µM unless noted
Compounds without any hit were thinned out: in the full panel of roughly 83,000, 20% have a hit.
Cut-off -20% on growth, inclusive. At or above means YES; below means NO.

Example cases with answers are listed next.
- CCOc1ccc2nc(SCc3nc4n(n3)S(=O)(=O)c3ccccc3N4C)sc2c1: NO
- O=C(Nc1ccc(-c2nc(-c3cccc(OCCN4CCOCC4)c3)c(-c3ccnc(Br)c3)[nH]2)cc1)c1ccccc1: NO
- O=C(Nc1ccc(F)cc1F)c1cc(F)ccc1O: NO
- O=C1COCCN1c1ccc(NCc2cn(C(=O)c3ccc(Cl)cc3)c3ccccc23)cc1: YES

Field: next compound
Does the reported growth for CC1(C)C2CC1C1(/C=N\Nc3ccccc3)C(C2)C(C#N)(C#N)C1(C#N)C#N (stereo not given) fall at or above the -20% mark?
YES

---

System: A549/ATCC NSCLC
method.summary: NCI-60 one-dose screen, 48 h
condition.set: 10 µM unless noted
The panel holds about 83,000 compounds, 20% with a hit somewhere; the sample as a whole holds those more often. The source made the active and inactive calls. The calls were made as follows: active = growth percent below 10; inactive = the rest.
// one of YES for active, NO for inactive, no free text

- COc1c(B(O)O)cc(F)cc1-c1nc2ccc3[nH]ncc3c2c2c1CCCC2: NO
- COc1cc2cc(Oc3ccc(NC(=O)Nc4ccc(F)c(C(F)(F)F)c4)cc3)c(C)nc2cc1OCCN1CCOCC1: NO

Entry `CC(C)c1cc(C(C)C)c(S(=O)(=O)Oc2ccc(NC(=O)c3ccc(Cl)cc3)cc2)c(C(C)C)c1` : call = ?
NO

Entry `Cc1ccc2nc(NC(=O)CSc3nc(Cl)c(C#N)c(-c4ccccc4)n3)sc2c1` : call = ?
NO

Entry `Cc1ccc(-c2nc(N3CCN(CC(=O)Nc4ccc(Cl)c(C(F)(F)F)c4)CC3)c3ccccc3n2)cc1` : call = ?
NO

Entry `O=C(N/N=C/[C@H](O)[C@@H](O)[C@@H](O)[C@H](O)CO)c1ccc(NC(=O)c2cccnc2)cc1` : call = ?
NO
